Target: KRAS G12C (SEQ ID NO:1 or SEQ ID NO:2) (Homo sapiens, UniProt P01116, G12C)
Construct: purchased
Sequence (P01116 with tags, fused parts or gaps isoform P01116-2 G12C): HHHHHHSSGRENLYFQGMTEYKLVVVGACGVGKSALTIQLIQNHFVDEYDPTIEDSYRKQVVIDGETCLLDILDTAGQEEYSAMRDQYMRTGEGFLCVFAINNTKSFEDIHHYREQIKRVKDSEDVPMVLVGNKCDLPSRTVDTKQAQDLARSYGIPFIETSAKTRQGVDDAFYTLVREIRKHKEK
Test: Intact mass analysis (LC-MS) of covalent modification, KRAS G12C
Type: binding
Parameters: key: b: KRAS G12C modified
Details: intact mass spectrometry; covalent modification of KRAS G12C FL
EXPERIMENTAL ENDPOINT: KRAS G12C Modification

[
  {
    "COMPOUND": "COc1c(F)c(F)c(F)c(F)c1S(=O)(=O)N1CCN(c2nc(=O)n(-c3c(C)ccnc3C(C)C)c3nc(-c4c(O)cccc4F)c(F)cc23)[C@@H](C)C1",
    "ASSAY TARGET": "KRAS G12C (SEQ ID NO:1 or SEQ ID NO:2) (Homo sapiens, UniProt P01116, G12C)",
    "RESULT": "b"
  },
  {
    "COMPOUND": "Cc1ccnc(C(C)C)c1-n1c(=O)nc(N2CCN(S(=O)(=O)c3c(F)c(F)c(F)c(F)c3F)C[C@@H]2C)c2cc(F)c(-c3c(O)cccc3F)nc21",
    "ASSAY TARGET": "KRAS G12C (SEQ ID NO:1 or SEQ ID NO:2) (Homo sapiens, UniProt P01116, G12C)",
    "RESULT": "b"
  },
  {
    "COMPOUND": "Cc1ccnc(C(C)C)c1-n1c(=O)nc(N2CCN(S(=O)(=O)c3c(F)c(F)c(F)c(F)c3OC(F)F)C[C@@H]2C)c2cc(F)c(-c3c(O)cccc3F)nc21 [Compound 16A]",
    "ASSAY TARGET": "KRAS G12C (SEQ ID NO:1 or SEQ ID NO:2) (Homo sapiens, UniProt P01116, G12C)",
    "RESULT": "b"
  }
]

----------
Tested on: phospho-ERK1/2 in MIA PaCa-2 cells (express KRAS G12C)
Assay: ERK1/2 phosphorylation in MIA PaCa-2 cells
Assay type: cell-based, human
Parameters: key: X: KRAS G12C bound and modulated in cells

[
  {
    "COMPOUND": "Cc1ccnc(C(C)C)c1-n1c(=O)nc(NS(=O)(=O)c2c(F)c(F)c(F)c(F)c2F)c2cc(F)c(Cl)nc21",
    "pERK - MIA PaCa-2 - (6 hours, 5 uM)": "X"
  },
  {
    "COMPOUND": "Cc1ccnc(C(C)C)c1-n1c(=O)nc(N2CCN(S(=O)(=O)c3c(F)c(F)c(F)c(F)c3OCF)C[C@@H]2C)c2cc(F)c(-c3c(O)cccc3F)nc21",
    "pERK - MIA PaCa-2 - (6 hours, 5 uM)": "X"
  },
  {
    "COMPOUND": "Cc1ccnc(C(C)C)c1-n1c(=O)nc(NC2CN(S(=O)(=O)c3c(F)c(F)c(F)c(F)c3C(F)(F)F)C2)c2cc(F)c(Cl)nc21 [Compound 14A]",
    "pERK - MIA PaCa-2 - (6 hours, 5 uM)": "X"
  }
]

----------
System: phospho-ERK1/2 in MIA PaCa-2 cells (express KRAS G12C)
Assay: ERK1/2 phosphorylation in MIA PaCa-2 cells
Type: cell-based, human
Parameters: key: X: KRAS G12C bound and modulated in cells

[
  {
    "MOLECULE": "Cc1ccnc(C(C)C)c1-n1c(=O)nc(N2CCN(S(=O)(=O)c3c(F)c(F)c(F)c(F)c3C(F)(F)F)C[C@@H]2C)c2cc(F)c(-c3c(O)cccc3F)nc21",
    "ASSAY TARGET": "phospho-ERK1/2 in MIA PaCa-2 cells (express KRAS G12C)",
    "pERK - MIA PaCa-2 - (6 hours, 5 uM)": "X"
  },
  {
    "MOLECULE": "COc1cc(N2CCc3c(ncnc3N3CCN(S(=O)(=O)c4c(F)c(F)c(F)c(F)c4C(F)(F)F)CC3)C2)c2ccccc2c1 [Compound 40A]",
    "ASSAY TARGET": "phospho-ERK1/2 in MIA PaCa-2 cells (express KRAS G12C)",
    "pERK - MIA PaCa-2 - (6 hours, 5 uM)": "X"
  },
  {
    "MOLECULE": "C[S+]([O-])c1c(F)c(F)c(F)c(F)c1N1CC(Nc2ncnc3cc(-c4ccccc4F)c(Cl)cc23)C1 (racemic) [Compound 48A]",
    "ASSAY TARGET": "phospho-ERK1/2 in MIA PaCa-2 cells (express KRAS G12C)",
    "pERK - MIA PaCa-2 - (6 hours, 5 uM)": "X"
  }
]

----------
Biological target: KRAS G12C Lite (SEQ ID NO:3) (Homo sapiens, UniProt P01116, C118S/C51S/C80S/G12C/S136P/S39C)
Sequence (P01116 other isoform, or with tags, fused parts or gaps G12C/S39C/C51S/C80S/C118S/S136P): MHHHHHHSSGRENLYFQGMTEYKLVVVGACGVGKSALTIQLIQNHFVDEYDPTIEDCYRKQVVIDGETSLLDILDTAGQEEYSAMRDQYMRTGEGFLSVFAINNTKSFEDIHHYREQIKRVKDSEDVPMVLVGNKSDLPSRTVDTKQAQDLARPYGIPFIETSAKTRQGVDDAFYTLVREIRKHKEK
Test: Intact mass analysis (LC-MS) of covalent modification, KRAS G12C Lite
Type: binding
Parameters: key: a: KRAS Lite modified
Conditions: intact mass spectrometry; covalent modification of KRAS G12C Lite
EXPERIMENTAL ENDPOINT: KRAS Lite Modification

[
  {
    "COMPOUND": "C[S+]([O-])c1c(F)c(F)c(F)c(F)c1N1CCN(c2ncnc3c2CCN(c2cccc4cccc(Cl)c24)C3)CC1 (racemic) [Compound 43A]",
    "EXPERIMENTAL ENDPOINT": "KRAS Lite Modification",
    "RESULT": "a"
  },
  {
    "COMPOUND": "Cc1ccnc(C(C)C)c1-n1c(=O)nc(NC2CN(S(=O)(=O)c3c(F)c(F)c(F)c(F)c3C(F)(F)F)C2)c2cc(F)c(Cl)nc21 [Compound 14A]",
    "EXPERIMENTAL ENDPOINT": "KRAS Lite Modification",
    "RESULT": "a"
  },
  {
    "COMPOUND": "Cc1ccnc(C(C)C)c1-n1c(=O)nc(N2CCN(S(=O)(=O)c3c(F)c(F)c(F)c(F)c3F)C[C@@H]2C)c2cc(F)c(Cl)nc21",
    "EXPERIMENTAL ENDPOINT": "KRAS Lite Modification",
    "RESULT": "a"
  }
]

----------
Biological target: KRAS G12C (SEQ ID NO:1 or SEQ ID NO:2) (Homo sapiens, UniProt P01116, G12C)
Construct: purchased
Assay: Intact mass analysis (LC-MS) of covalent modification, KRAS G12C
Format: binding
Set-up: key: b: KRAS G12C modified
Conditions: intact mass spectrometry; covalent modification of KRAS G12C FL
EXPERIMENTAL ENDPOINT: KRAS G12C Modification

[
  {
    "COMPOUND": "O=C(COc1ccc(Cl)cc1Cl)N1CCN(S(=O)(=O)c2c(F)c(F)c(F)c(F)c2C(F)(F)F)CC1 [Compound 51A]",
    "RESULT": "b"
  },
  {
    "COMPOUND": "Cc1ccnc(C(C)C)c1-n1c(=O)nc(N2CCN(S(=O)(=O)c3c(F)c(F)c(F)c(F)c3C(F)(F)F)C[C@@H]2C)c2cc(F)c(-c3c(O)cccc3F)nc21",
    "RESULT": "b"
  },
  {
    "COMPOUND": "Cc1ccnc(C(C)C)c1-n1c(=O)nc(N2CCN(S(=O)(=O)c3c(F)c(F)c(F)c(F)c3OC(F)F)C[C@@H]2C)c2cc(F)c(-c3c(O)cccc3F)nc21 (single isomer, unassigned) [Compound 18A]",
    "RESULT": "b"
  }
]
